Tested on: HepG2-TP53BP1-CLTA
Assay Comment: phenotypically active (imaging signature differs from DMSO and reproducible) at any of 0.3-9 uM (binary (1 = active, 0 = inactive)); higher = active
Assay Setup: treatment time: 24 h
Form field: phenotypically active (one value per entry).
Simply state the number, no unit and no words.

Incoming: GET /values?readout=phenotypically active&item= O=C1N[C@@H]2[C@@H](O)[C@@H](O)[C@H](O)[C@@H](CO)N2C1=O
Outgoing: 0

Incoming: Then this compound: Cc1noc(C)c1-c1ccc2c(c1)nc(CCc1ccc(OCCCN(C)C)cc1)n2CCN1CCOCC1
Outgoing: 1

Incoming: Then what about the compound Cc1noc(C)c1-c1cc(O)cc(C(O)c2ccccc2)c1 (stereo not drawn) ?
Outgoing: 1

Incoming: Please answer likewise for CCNC(=O)c1noc(-c2cc(C(C)C)c(O)cc2O)c1-c1ccc(CN2CCOCC2)cc1
Outgoing: 1

Incoming: Next record, please: Cc1n[nH]c(=O)[nH]c1=O
Outgoing: 0
